Where these numbers come from: patent US20190367631A1

Molecular target: T1, human MSR1 extracellular domain expressed with a N-terminal nonahistidine tag (human, UniProt P21757 77-451)
T1 construct: extracellular domain; also called His9-hMSR1; His-hMSR1
T1 sequence: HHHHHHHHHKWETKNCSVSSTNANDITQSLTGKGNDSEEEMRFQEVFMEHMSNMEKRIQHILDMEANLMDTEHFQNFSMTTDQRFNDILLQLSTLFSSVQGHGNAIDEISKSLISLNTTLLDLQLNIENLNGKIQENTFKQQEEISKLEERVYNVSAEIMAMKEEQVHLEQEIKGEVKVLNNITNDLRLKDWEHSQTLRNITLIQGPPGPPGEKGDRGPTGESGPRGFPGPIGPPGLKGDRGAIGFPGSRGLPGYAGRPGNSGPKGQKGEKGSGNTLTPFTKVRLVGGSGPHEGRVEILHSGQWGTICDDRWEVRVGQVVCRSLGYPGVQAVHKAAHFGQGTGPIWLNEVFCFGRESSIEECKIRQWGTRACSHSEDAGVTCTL
Experiment: competition ELISA, plate-coated His9-hMSR1; 300 nM antibody, competitor ligand biot-AGE-BSA
Kindly supply the reported % Blocking values for the records listed here.
Numbers only, in %.

binder | % Blocking / %
H2aM21229N (antibody, mouse IgG2a, V domains shown, Human variable domains with mouse IgG2a Fc) VH: EVQLVESGGGLVKPGGSLRLSCAASGFTFSRYSMNWVRQAPGKGLEWVSSISSSSSYIYYGDTVKGRFTISRDNAKKSLYLQMNSLRAEDTAVYYCVRDRGQLVLYFDYWGQGTLVTVSS VL: DIQMTQSPASLSTSIRDRVTITCRASLSISSFLNWFQQRPGKAPKLLIYVASNLQSGVPSRFSDSGSGTDFTLTISSLQPEDFATYYCQQNYSTPPITFGQGTRLEIK | 3

Please examine the following record next.
**Query** Give its % Blocking value. Item: H1H21234N-N297Q (antibody, V domains shown, Human IgG1 Fc with N297Q (EU numbering)) VH: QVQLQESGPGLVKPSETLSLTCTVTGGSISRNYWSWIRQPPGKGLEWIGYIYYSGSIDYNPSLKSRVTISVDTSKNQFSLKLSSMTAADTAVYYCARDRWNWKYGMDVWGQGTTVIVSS VL: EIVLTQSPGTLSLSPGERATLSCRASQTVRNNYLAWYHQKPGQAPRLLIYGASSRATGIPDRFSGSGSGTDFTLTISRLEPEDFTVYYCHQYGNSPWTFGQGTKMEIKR
**Result** -27
